system_tested: fully phosphorylated, active Mouse ERK2 protein (Mus musculus)
Sequence (P63085 whole entry): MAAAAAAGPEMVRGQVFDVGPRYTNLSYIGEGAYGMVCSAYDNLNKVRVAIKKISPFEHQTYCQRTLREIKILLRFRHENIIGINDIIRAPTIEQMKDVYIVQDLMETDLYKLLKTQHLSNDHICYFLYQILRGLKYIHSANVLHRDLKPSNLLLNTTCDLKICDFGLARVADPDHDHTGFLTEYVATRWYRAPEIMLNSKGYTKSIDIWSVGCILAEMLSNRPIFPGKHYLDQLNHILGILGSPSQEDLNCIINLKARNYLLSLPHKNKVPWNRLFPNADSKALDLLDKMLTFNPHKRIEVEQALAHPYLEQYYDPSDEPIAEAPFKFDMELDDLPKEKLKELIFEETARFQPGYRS
assay_protocol: Active ERK2 assay (AERK2), IMAP format
setup_conditions: activated ERK2, IMAP fluorescence polarization, 30 μM ATP
pIC50: −log10 of the molar value.
measured_metric: pIC50

CC(C)c1cc(NC(=O)[C@@H]2CCN(CC(=O)N3C[C@@H]4C[C@H]3CN4c3ccc(-c4cnccn4)cc3)C2)ccc1O 7.40
O=C(Nc1ccc(O)c(C(F)(F)F)c1)[C@@H]1CCN(CC(=O)N2CCN(c3ccc(-c4ncccn4)cc3)CC2)C1 7.12
CC(=O)c1cnc(-c2ccc(N3CCN(C(=O)CN4CC[C@@H](C(=O)Nc5ccc(O)c(Cl)c5)C4)CC3)cc2)nc1 7.36
CC(C)c1cc(NC(=O)[C@@H]2CCN(CC(=O)N3C[C@@H]4C[C@H]3CN4c3ccc(-c4ncccn4)cc3)C2)ccc1O 7.42
O=C(Nc1ccc(O)c(Cl)c1)[C@@H]1CCN(CC(=O)N2C[C@@H]3C[C@H]2CN3c2ccc(-c3ncccn3)cc2)C1 7.47
O=C(Nc1ccc(O)c(-c2ccc(F)cc2)c1)[C@@H]1CCN(CC(=O)N2CCN(c3ccc(-c4ncccn4)cc3)CC2)C1 7.28

Reference source: patent US7807672B2
